Measured IC50 (UniProtKB P08253)
Sequence (P08253 whole entry): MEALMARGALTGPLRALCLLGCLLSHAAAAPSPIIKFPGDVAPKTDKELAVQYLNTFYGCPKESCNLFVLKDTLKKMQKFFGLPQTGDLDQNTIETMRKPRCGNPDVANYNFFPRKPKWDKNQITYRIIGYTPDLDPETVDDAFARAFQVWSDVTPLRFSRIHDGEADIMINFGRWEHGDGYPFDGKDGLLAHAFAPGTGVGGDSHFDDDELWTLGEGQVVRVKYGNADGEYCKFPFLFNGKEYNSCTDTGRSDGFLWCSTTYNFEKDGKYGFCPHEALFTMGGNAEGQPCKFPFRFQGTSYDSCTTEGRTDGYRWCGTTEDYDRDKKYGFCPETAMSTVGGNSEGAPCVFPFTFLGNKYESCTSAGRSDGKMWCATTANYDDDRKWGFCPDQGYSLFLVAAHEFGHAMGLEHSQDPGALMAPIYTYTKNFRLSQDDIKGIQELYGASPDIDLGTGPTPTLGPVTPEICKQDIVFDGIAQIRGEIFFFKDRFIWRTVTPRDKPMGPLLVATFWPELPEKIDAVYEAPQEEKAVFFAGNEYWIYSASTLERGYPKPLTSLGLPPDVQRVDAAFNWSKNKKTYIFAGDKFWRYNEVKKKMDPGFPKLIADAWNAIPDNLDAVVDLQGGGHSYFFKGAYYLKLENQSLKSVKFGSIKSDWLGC
Just the number please, in nM, no unit attached.

UniProtKB P08253 data for CCCCCCC(CC(=O)O)C(=O)c1ccc(C#Cc2ccccc2)cc1 (centres undefined) ; its IC50: 1660

UniProtKB P08253 data for CCC(CC(=O)O)C(=O)c1ccc(C#Cc2ccccc2)cc1 (centres undefined) ; its IC50: 440

UniProtKB P08253 data for O=C(O)CC(Cc1ccccc1)C(=O)c1ccc(C#Cc2ccccc2)cc1 (centres undefined) ; its IC50: 2110

UniProtKB P08253 data for "CCCCCCCCC#Cc1ccc(C(=O)CCC(=O)O)cc1" ; its IC50: 3070

###

Reported Metric: IC50

Matrix metalloproteinase-14 (Homo sapiens, UniProt P50281) data for CCC(CC(=O)O)C(=O)c1ccc(C#Cc2ccccc2)cc1 (stereo unspecified) ; its IC50: 30.6 µM

###

Please go through the items and note down their IC50.
Just the number please, in µM, no unit attached.

Macrophage metalloelastase (Homo sapiens, UniProt P39900) data for "CCCCCCCCC#Cc1ccc(C(=O)CCC(=O)O)cc1" ; its IC50: 12.5

Macrophage metalloelastase (Homo sapiens, UniProt P39900) data for CCC(CC(=O)O)C(=O)c1ccc(C#CCOCc2ccccc2)cc1 (stereo not drawn) ; its IC50: 7.56

Macrophage metalloelastase (Homo sapiens, UniProt P39900) data for O=C(O)CC(Cc1ccccc1)C(=O)c1ccc(C#Cc2ccccc2)cc1 (stereo not drawn) ; its IC50: 0.6

Data origin: ChEMBL document CHEMBL1148611
